Origin of the recorded values: paper PMC5706701

molecular target: Human IP6K1 (Homo sapiens, UniProt Q92551); construct: GST (N, cleaved yes); made in house; host or cells: C43 E. coli, pGEX-6P-2; assay: IP6K1 high-throughput screen of the Sigma LOPAC (ADP-Glo Max, single point); format: biochemical; details: LOPAC single-point screen, ADP-Glo Max luminescence raw signal per well;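 further: final compound concentration 10µM in 5% DMSO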
Sequence (Q92551 whole entry): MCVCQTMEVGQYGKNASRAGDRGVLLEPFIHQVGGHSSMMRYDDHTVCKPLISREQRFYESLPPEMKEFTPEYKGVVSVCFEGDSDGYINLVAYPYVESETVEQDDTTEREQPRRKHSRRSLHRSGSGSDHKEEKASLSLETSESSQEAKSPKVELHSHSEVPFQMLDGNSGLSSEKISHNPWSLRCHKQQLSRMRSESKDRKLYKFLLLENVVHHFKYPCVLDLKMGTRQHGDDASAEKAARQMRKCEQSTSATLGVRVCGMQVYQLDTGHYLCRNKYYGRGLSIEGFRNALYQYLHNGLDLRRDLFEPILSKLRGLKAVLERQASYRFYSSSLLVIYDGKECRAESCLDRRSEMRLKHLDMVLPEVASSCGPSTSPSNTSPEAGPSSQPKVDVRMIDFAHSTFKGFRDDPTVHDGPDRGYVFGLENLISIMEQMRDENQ
Exercise: state measured Raw Signal for each of the molecules provided.
Just the number, please, no unit after it.

Param readout = Raw Signal; param system = Human IP6K1 (Homo sapiens, UniProt Q92551); param query = CC1=C(/C=C/C(C)=C/C=C/C(C)=C/C(=O)O)C(C)(C)CCC1 ; response: value
50659

Human IP6K1 (Homo sapiens, UniProt Q92551) / Raw Signal / N[C@@H](Cc1ccc(O)c(O)c1)C(=O)O [L-3,4-Dihydroxyphenylalanine] : value?
43363

Entry O=c1[nH]cc(F)c(=O)[nH]1 , system Human IP6K1 (Homo sapiens, UniProt Q92551): what Raw Signal was measured?
52294

Form entry - test system: Human IP6K1 (Homo sapiens, UniProt Q92551); read-out: Raw Signal; molecule: CCn1c(=O)[nH]c2cc(Cl)c(Cl)cc21
52025

Give Human IP6K1 (Homo sapiens, UniProt Q92551) Raw Signal for CC(=O)S[C@@H]1CC2=CC(=O)CC[C@]2(C)[C@H]2CC[C@@]3(C)[C@@H](CC[C@@]34CCC(=O)O4)[C@H]12
50910

Record O=c1[nH]c2ccccc2n1CCCN1CCC(n2c(=O)[nH]c3cc(Cl)ccc32)CC1 : what is its Raw Signal with Human IP6K1 (Homo sapiens, UniProt Q92551)?
51707

Item: OC1(c2ccc(Cl)cc2)CCN(Cc2c[nH]c3ccccc23)CC1 Test system: Human IP6K1 (Homo sapiens, UniProt Q92551) Read-out: Raw Signal Value: ?
51249

Please provide the recorded Raw Signal for O=c1oc(Cl)c(Cl)c2ccccc12 , tested on Human IP6K1 (Homo sapiens, UniProt Q92551).
52609

Observed Raw Signal on Human IP6K1 (Homo sapiens, UniProt Q92551) for CC1Cc2cc3c(cc2C(c2ccc(N)cc2)=NN1)OCO3 (stereo not drawn) , please.
63898

====

biological target: Human IP6K1 (Homo sapiens, UniProt Q92551); construct: GST (N, cleaved yes); made in house; host or cells: C43 E. coli, pGEX-6P-2; assay: IP6K1 high-throughput screen of the Sigma LOPAC (ADP-Glo Max, single point); format: biochemical; conditions: LOPAC single-point screen, ADP-Glo Max luminescence raw signal per well;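 further: final compound concentration 10µM in 5% DMSO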
observable: Raw Signal
Give the figure by itself; no unit, no explanation.

Quick one: Raw Signal for CC[N+](C)(CC)CC(=O)Nc1c(C)cccc1C.[Cl-] [Lidocaine N-methyl hydrochloride] ?
51540

Request the reported Raw Signal associated with NC(=O)c1ccccc1 [Benzamide]
54873

What value of measured Raw Signal is listed for CC(C)=CCC/C(C)=C/CC/C(C)=C/CSc1ccccc1C(=O)O [Farnesylthiosalicylic acid] ?
51239

Give the measured Raw Signal of CCCC1O[C@@H]2C[C@H]3[C@@H]4CCC5=CC(=O)C=C[C@]5(C)[C@H]4[C@@H](O)C[C@]3(C)[C@]2(C(=O)CO)O1 (some centres unmarked) [Budesonide] .
54430

Recorded Raw Signal of N.N.N.N.N.N.N.N.N.N.N.N.N.N.[Cl-].[Cl-].[Cl-].[Cl-].[Cl-].[Cl-].[O-2].[O-2].[Ru+3].[Ru+3].[Ru+4] [Ruthenium red] , please.
52989

Param item = O=C1CN(/N=C/c2ccc(-c3ccc([N+](=O)[O-])cc3)o2)C(O)=N1 [Dantrolene sodium] ; retrieve measured Raw Signal.
49715

Entry CCCCc1ccc(C(=O)O)nc1 [Fusaric acid] : reported Raw Signal = ?
50850

Quick one: Raw Signal for COc1ccc2c(c1)c(CC(=O)O)c(C)n2C(=O)c1ccccc1 ?
53454

====

molecular target: Human IP6K1 (Homo sapiens, UniProt Q92551); construct: GST (N, cleaved yes); made in house; host or cells: C43 E. coli, pGEX-6P-2; test: IP6K1 high-throughput screen of the Sigma LOPAC (ADP-Glo Max, single point); type: biochemical; details: Sigma LOPAC single-point screen; Z-score from plate average and StDev;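 further: final compound concentration 10µM in 5% DMSO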
Where a name gives a salt, the structure may show the parent alone.
Hi! Just check whether Z-score is below 0.7. Below gives yes, equal or above gives no.

Field: below-cutoff. Rule: recorded Z-score strictly less than 0.7. Subject: CCc1cccc(N(C)C(N)=Nc2cccc3ccccc23)c1 [CNS-1102]
no

Determine if O=C(O)CCCCCCCC(=O)O [Azelaic acid] shows Z-score strictly lower than 0.7.
no

Strictly below 0.7 in Z-score? CC(C)(CO)Cc1cc(C(C)(C)C)c(O)c(C(C)(C)C)c1 [CGP-7930]
no

Determine if N[C@@H](Cc1c[nH]c2ccc(O)cc12)C(=O)O [5-Hydroxy-L-tryptophan] shows Z-score strictly lower than 0.7.
no

Item COc1ccc(Cc2nccc3cc(OC)c(OC)cc23)cc1OC [Papaverine hydrochloride] : Z-score beneath 0.7, strictly?
no

Given CN(C)CCC(c1ccc(Cl)cc1)c1ccccn1.O=C(O)/C=C\C(=O)O (racemic) [(±)-Chlorpheniramine maleate] , is recorded Z-score strictly lower than 0.7?
yes

Report whether reported Z-score is lower than 0.7 (strictly) for COc1ccccc1N1CCN(CC(O)COc2cccc3ccccc23)CC1.Cl.Cl (stereo not shown) [Naftopidil dihydrochloride]
yes

Z-score strictly < 0.7 for this compound? CC1=C(C(=O)O)N2C(=O)[C@@H](NC(=O)[C@H](N)c3ccccc3)[C@H]2SC1.O [Cephalexin hydrate]
yes

Lab log: compare recorded Z-score with 0.7; is it strictly lower for C=CCc1ccccc1OCC(O)CNC(C)C (stereo not shown) [Alprenolol hydrochloride] ?
yes

Is Z-score strictly under 0.7 for the entry CC#C[C@]1(O)CC[C@H]2[C@@H]3CCC4=CC(=O)CCC4=C3[C@@H](c3ccc(N(C)C)cc3)C[C@@]21C [Mifepristone] ?
no

Take the compound NCC(O)(CS(=O)(=O)O)c1ccc(Cl)cc1 (stereo not shown) [2-Hydroxysaclofen] and say whether its Z-score is less than 0.7.
yes

Item C[C@@H]1O[C@@H](O[C@H]2C[C@@H](O)[C@]3(CO)[C@H]4[C@H](O)C[C@]5(C)[C@@H](C6=CC(=O)OC6)CC[C@]5(O)[C@@H]4CC[C@]3(O)C2)[C@H](O)[C@H](O)[C@H]1O [Ouabain] : Z-score beneath 0.7, strictly?
yes

Is the reported Z-score for COc1cc2nc(N3CCN(C(=O)C4COc5ccccc5O4)CC3)nc(N)c2cc1OC (stereo not shown) [Doxazosin mesylate] strictly below 0.7?
yes

Is the reported Z-score for O=S(=O)(c1cccc2cnccc12)N1CCNCC1 [HA-100] strictly below 0.7?
yes

Strictly below 0.7 in Z-score? CN1CCN(C2Cc3ccccc3Sc3ccc(Cl)cc32)CC1.O=C(O)/C=C\C(=O)O (racemic) [(±)-Octoclothepin maleate]
no

Strictly below 0.7 in Z-score? CN(C)c1ccc(/C=C2\C(=O)Nc3ccccc32)cc1 [SU 4312]
no

In plain terms, does Cn1cnc2c(NCc3ccccc3)nc(NCCO)nc21 [Olomoucine] come in under 0.7 for Z-score?
no

Is 0.7 strictly greater than the compound's reported Z-score? compound: CC(C)NCC(O)c1ccc(O)c(O)c1.Cl (racemic) [(±)-Isoproterenol hydrochloride]
yes

Hello, is Z-score of the following compound strictly smaller than 0.7? CC(C)(Oc1ccc(C2CC2(Cl)Cl)cc1)C(=O)O (stereo not shown) [Ciprofibrate]
no

Please indicate whether the reported Z-score of NCC(CC(=O)O)c1ccc(Cl)cc1 (racemic) [(±)-Baclofen] is strictly below 0.7.
no

# TODO verify Z-score < 0.7 strictly for this compound: Nc1cc(=O)[nH]c(N)n1 [2,6-Diamino-4-pyrimidinone]
yes

Strictly below 0.7 in Z-score? NC(CCCP(=O)(O)O)C(=O)O (racemic) [(±)-2-Amino-5-phosphonopentanoic acid]
yes

Field: below-cutoff. Rule: recorded Z-score strictly less than 0.7. Subject: N#C/C(=C\c1ccc(O)c(O)c1)C(=O)N1CCc2ccccc21 [Tyrphostin AG 528]
yes

Z-score strictly < 0.7 for this compound? NC(=O)OCC(COC(N)=O)c1ccccc1 [Felbamate]
yes

Is it true that Z-score reported for OCCN1CCN(CCCN2c3ccccc3Sc3ccc(Cl)cc32)CC1 [Perphenazine] is less than 0.7?
yes

For NCC(CP(=O)(O)O)c1ccc(Cl)cc1 (stereo not shown) [Phaclofen] , is the recorded Z-score below the cut-off of 0.7?
no

Consider Cc1ccc(OCC(O)C(C)NC(C)C)c2c1CCC2.Cl (stereo not shown) [ICI 118,551 hydrochloride] . Does its Z-score lie strictly below 0.7?
yes

Please indicate whether the reported Z-score of C[N+]1(CCCCC[N+]2(C)CCCC2)CCCC1.O=C([O-])C(O)C(O)C(=O)O.O=C([O-])C(O)C(O)C(=O)O [Pentolinium di[L(+)-tartrate]] is strictly below 0.7.
no

For CCOC(=O)C1=C(C)NC(C)=C(C(=O)OC)C1c1cccc([N+](=O)[O-])c1 (stereo not shown) [Nitrendipine] , is the recorded Z-score below the cut-off of 0.7?
yes

Please determine if CNC(=O)c1cc2c(cn1)[nH]c1ccccc12 [N-Methyl-beta-carboline-3-carboxamide] is below 0.7 in terms of Z-score.
yes

Please indicate whether the reported Z-score of N[C@H](CCCCCP(=O)(O)O)C(=O)O [D(-)-2-Amino-7-phosphonoheptanoic acid] is strictly below 0.7.
no

Does the reported Z-score of the following compound sit strictly below 0.7? CCCCCCCCCCCCCCCCOCC(COCC(F)(F)F)OP(=O)(O)OC (stereo not shown) [MJ33]
yes
